Data credit: patent US8138168B1

Below is a list of entries, each paired with its recorded IC50 value.
ASSAYED SYSTEM: Recombinant human renin (Homo sapiens)
Construct: isolate the active form (residues 67-406); made in house; host or cells: FreeStyle 293-F cells (transient expression of pcDNA3.1(+)/hREN)
Sequence (P00797 67-406): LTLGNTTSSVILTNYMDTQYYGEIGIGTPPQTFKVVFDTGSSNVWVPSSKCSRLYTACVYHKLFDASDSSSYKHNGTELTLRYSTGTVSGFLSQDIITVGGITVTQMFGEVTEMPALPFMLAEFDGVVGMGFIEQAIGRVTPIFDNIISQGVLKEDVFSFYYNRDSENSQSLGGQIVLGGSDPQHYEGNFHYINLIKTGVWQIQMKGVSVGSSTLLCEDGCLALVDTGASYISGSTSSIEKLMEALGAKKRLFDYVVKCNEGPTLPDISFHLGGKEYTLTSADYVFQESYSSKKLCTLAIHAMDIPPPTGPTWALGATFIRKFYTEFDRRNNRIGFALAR
TEST DETAILS: In vitro enzymatic activity assay of renin inhibitors (fluorogenic peptide substrate)
Type: biochemical
SETTINGS: read-out: IC50 of Exemplified Compounds Against Renin

Some molecules with known IC50 results, for comparison:
COCCCn1c([C@@H]2CCCN(C(=O)C[C@H](N)Cc3ccc(Br)cc3)C2)nc2ccccc21	100 to 1000 nM
COCCCn1c([C@@H]2CCCN(C(=O)C[C@H](N)Cc3ccc(-c4cccnc4Cl)cc3)C2)nc2ccccc21	< 100 nM
COCCCn1c([C@@H]2CCCN(C(=O)C[C@H](N)Cc3ccc(-c4cccnc4)cc3)C2)nc2ccccc21	< 100 nM
COCCCn1c([C@@H]2CCCN(C(=O)C[C@H](N)Cc3ccc(N4CCN(C(C)=O)CC4)cc3)C2)nc2ccccc21	100 to 1000 nM
COCCCn1c([C@@H]2CCCN(C(=O)C[C@H](N)Cc3ccc(-c4ccc(-n5c(C)n[nH]c5=O)cc4)cc3)C2)nc2ccccc21	< 100 nM

Here is the next item to consider.
Lab entry: Recombinant human renin (Homo sapiens) assay, molecule `COCCCn1c([C@@H]2CCCN(C(=O)[C@H](O)[C@H](N)c3ccccc3)C2)nc2ccccc21` , IC50 = 100 to 1000 nM
